Origin of the recorded values: patent US20250215104A1

For each entry below, report its koff value.
Target: T1, cynomolgus soluble urokinase plasminogen activator receptor (suPAR) (cynomolgus, UniProt Q9GK78 23-303, limits assumed)
T1 construct: Target antigen of the off-rate screen; also called cynomolgus uPAR; cynomolgus suPAR
T1 sequence (Q9GK78 23-303 limits assumed): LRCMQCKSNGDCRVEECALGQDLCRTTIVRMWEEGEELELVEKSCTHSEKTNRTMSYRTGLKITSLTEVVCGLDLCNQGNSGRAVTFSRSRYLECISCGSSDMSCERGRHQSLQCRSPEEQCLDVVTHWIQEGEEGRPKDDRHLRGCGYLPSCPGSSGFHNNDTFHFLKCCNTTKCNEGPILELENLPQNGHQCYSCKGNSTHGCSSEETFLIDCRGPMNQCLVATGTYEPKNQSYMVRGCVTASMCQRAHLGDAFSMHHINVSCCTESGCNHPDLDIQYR
Test: off-rate (kdis) screen of scFv clones, biosensor (Octet)
Write the answer as a number in s⁻¹, unit excluded.

The recorded koff for suPAR_DB01_D03 (scFv, V domains shown, screened as scFv) VH: QVQLVQSGAEVKKPGASVKVSCKASGGTFTNYYMHWVRQAPGQGLEWMGWIDHENGNTIYDQKFQGRVTMTRDTSTSTVYMELSSLRSEDTAVYYCARGYDVDWFVYWGQGTLVTVSS VL: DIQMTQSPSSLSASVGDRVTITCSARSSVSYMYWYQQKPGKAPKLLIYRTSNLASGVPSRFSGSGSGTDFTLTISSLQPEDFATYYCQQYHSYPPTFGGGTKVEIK is 0.000203

The recorded koff for suPAR_DB01_E03 (scFv, V domains shown, screened as scFv) VH: QVQLVQSGAEVKKPGASVKVSCKASGYTFTDYYMHWVRQAPGQGLEWMGWIDHENGNTSYAQKFQGRVTMTRDTSTSTVYMELSSLRSEDTAVYYCARGYDVDWFVYWGQGTLVTVSS VL: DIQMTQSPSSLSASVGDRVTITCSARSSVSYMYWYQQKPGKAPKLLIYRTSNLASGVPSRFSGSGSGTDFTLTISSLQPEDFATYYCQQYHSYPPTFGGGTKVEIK is 5.44e-05

The recorded koff for suPAR_DB01_C09 (scFv, V domains shown, screened as scFv) VH: QVQLVQSGAEVKKPGASVKVSCKASGFNIKDYYIHWVRQAPGQGLEWMGWIDPENGNTIYAQKFQGRVTMTRDTSTSTVYMELSSLRSEDTAVYYCARGYDVDWFVYWGQGTLVTVSS VL: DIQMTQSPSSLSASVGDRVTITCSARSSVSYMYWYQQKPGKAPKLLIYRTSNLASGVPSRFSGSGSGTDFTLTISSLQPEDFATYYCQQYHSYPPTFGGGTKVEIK is 0.000203

The recorded koff for suPAR_DB01_C10 (scFv, V domains shown, screened as scFv) VH: QVQLVQSGAEVKKPGASVKVSCKASGYTFTNYYMHWVRQAPGQGLEWMGWIDPENGNTIYAQKFQGRVTMTRDTSTSTVYMELSSLRSEDTAVYYCARGYDVDWFVYWGQGTLVTVSS VL: DIQMTQSPSSLSASVGDRVTITCRARSSISYMYWYQQKPGKAPKLLIYRTSNLASGVPSRFSGSGSGTDFTLTISSLQPEDFATYYCQQYHSYPPTFGGGTKVEIK is 0.000266

The recorded koff for suPAR_DB01_D05 (scFv, V domains shown, screened as scFv) VH: QVQLVQSGAEVKKPGASVKVSCKASGYTFTGSYVHWVRQAPGQGLEWMGWIDHENGNTIYDQKFQGRVTMTRDTSTSTVYMELSSLRSEDTAVYYCARGYDVDWFVYWGQGTLVTVSS VL: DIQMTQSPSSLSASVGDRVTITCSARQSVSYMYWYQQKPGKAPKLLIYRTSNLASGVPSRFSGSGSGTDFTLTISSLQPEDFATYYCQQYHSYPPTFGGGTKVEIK is 0.000419
